Target: T1, mouse tissue factor pathway inhibitor (TFPI) (mouse, UniProt O54819 29-289, limits assumed)
T1 construct: bought; also called mTFPI; murine TFPI
T1 sequence (looked up): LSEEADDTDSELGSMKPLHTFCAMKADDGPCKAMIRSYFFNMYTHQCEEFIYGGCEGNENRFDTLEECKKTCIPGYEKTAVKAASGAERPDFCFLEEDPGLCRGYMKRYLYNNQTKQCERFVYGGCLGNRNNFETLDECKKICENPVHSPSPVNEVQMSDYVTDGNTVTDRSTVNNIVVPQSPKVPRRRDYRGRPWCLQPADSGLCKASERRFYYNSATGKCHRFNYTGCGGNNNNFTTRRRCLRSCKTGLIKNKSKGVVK
Assay: competitive ELISA
Each entry below carries its recorded variant/HC_D62R.
Numeric only. Scale: ratio

Below, 2 binders whose answers are already recorded.
binder: 4B7 HC N32D+G44S+D62R+Y112D/LC S32R+D33F+N35I+D97T (Fab, V domains shown) VH: QVQLQQSGPGLVKPSQTLSLTCAISGDSVSSDSAAWSWIRQSPSRGLEWLGIIYKRSKWYNRYAVSVKSRITINPDTSKNQFSLQLNSVTPEDTAVYYCARWHSDKHWGFDDWGQGTLVTVSS VL: DIVMTQSPLSLPVTPGEPASISCRSSQSLVFRFGITYLNWYLQKPGQSPQLLIYKGSNRASGVPDRFSGSGSGTDFTLKISRVEAEDVGVYYCQQYTSYPLTFGQGTKVEIKR
observationType: variant/HC_D62R
unitSpec: ratio
obsValue: 41.5

binder: 4B7 HC N32D+D62R+Y112D/LC D33R+N35I (Fab, V domains shown) VH: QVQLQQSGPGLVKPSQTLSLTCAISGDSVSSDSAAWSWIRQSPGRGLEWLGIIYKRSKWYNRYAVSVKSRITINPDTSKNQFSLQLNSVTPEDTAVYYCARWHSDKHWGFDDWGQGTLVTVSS VL: DIVMTQSPLSLPVTPGEPASISCRSSQSLVFSRGITYLNWYLQKPGQSPQLLIYKGSNRASGVPDRFSGSGSGTDFTLKISRVEAEDVGVYYCQQYDSYPLTFGQGTKVEIKR
observationType: variant/HC_D62R
unitSpec: ratio
obsValue: 19.5

// moving on: another record for variant/HC_D62R
// 4B7 HC N32D+D62Q+H107M+Y112D/LC S32R+D33R (Fab, V domains shown) VH: QVQLQQSGPGLVKPSQTLSLTCAISGDSVSSDSAAWSWIRQSPGRGLEWLGIIYKRSKWYNQYAVSVKSRITINPDTSKNQFSLQLNSVTPEDTAVYYCARWHSDKMWGFDDWGQGTLVTVSS VL: DIVMTQSPLSLPVTPGEPASISCRSSQSLVFRRGNTYLNWYLQKPGQSPQLLIYKGSNRASGVPDRFSGSGSGTDFTLKISRVEAEDVGVYYCQQYDSYPLTFGQGTKVEIKR : variant/HC_D62R value = 24.7

Data origin: patent USRE47150
